- Method: soluble fraction after stress (log2 fold change); higher = more stays soluble; pooled small domains, quantitative proteomics;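 further: 20 min heating vs room temperature control held 20 min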
- Measurement context: stress: 75 degC
Recorded soluble fraction (log2), one value per entry.
# print the numeric value only

Input sequence | soluble fraction (log2)
HMNPLPALLRYFRQKAGLTQQDVAAALSISRSGYANYEEGRNIPNIEQAIKLSELLNHDFLYAYTLSS | -2.53
HMAESSPYTVRPGDTLWKILAQTQNARYNDFPYLYRKFRELNPNITDLNHIVSGQKIIVPHIPG | -0.331
HMVAPKTEEQQKMFLESIVTKRQAETLIEKYPNIVQDIIDGTDNVDLANLKGIGEHTYNLIKEKVLSNY | 0.546

Form: sequence = HMELGRQDSAQLGRWAAGILAKNGKKITGRTMEFFLSRTGDDMENISSELEKLISYTLGREVITEEDIEAV ; soluble fraction (log2) = -0.263

Form: sequence = HMTRILTEDDIVNFLIRQPDTAYIIAKSFNENERKVKELLDLLIKKNKVREEIVNGVVSYAVN ; soluble fraction (log2) = -0.229

Form: sequence = HMLVSPLDEIPGIGRNRKKTLLNHFGSAKTIEGASLEDLKKVDGISELIAKKIYNYFHLNKNF ; soluble fraction (log2) = -0.85

Form: sequence = HMIFELDSDRASAGNTIGKLVSKWNNTEVASVQFVSGDDTSNKDNASIYLNTRSGGSGNLVRLRITK ; soluble fraction (log2) = 0.429

Form: sequence = HMSENIQLQKEQLYQLIAQLPEQRQKIFRLHKIDNYSYQEISDFTGLSRKTIANHIYLAHQFILKKVKK ; soluble fraction (log2) = -3.76

Form: sequence = HMANPFQELTERELDVLRQVAAGKNNREIAEALFIGEKTVKTHISNILSKLHLADRTQAAVYAWQQGMM ; soluble fraction (log2) = -0.223
